Numbers sourced from PubChem BioAssay AID1745844.

# Test system: rodent lifetime carcinogenesis bioassay, tumor incidence TD50
# assay-procedure: carcinogenic potency in animals, long-term in vivo studies, CPDB compilation (AID 1745844)
# measurement-setup: mouse; strain B6C3F1; males; by gavage; site: any site (literature study); lesion: several types; types named in the paper; dosed 64 weeks; study length 81 weeks
quantity-measured: TD50 (mg/kg/day)

structure-notation: CC(C)CCC[C@@H](C)[C@H]1CC[C@H]2[C@@H]3CC=C4C[C@@H](OC(=O)Cc5ccc(N(CCCl)CCCl)cc5)CC[C@]4(C)[C@H]3CC[C@]12C
measurement-target: rodent lifetime carcinogenesis bioassay, tumor incidence TD50
output-unit: mg/kg/day
observed-measurement: 0.728

----------
# System: rodent lifetime carcinogenesis bioassay, tumor incidence TD50
# assay-procedure: carcinogenic potency in animals, long-term in vivo studies, CPDB compilation (AID 1745844)
# measurement-setup: hamster; strain Syrian Golden; females; by gavage; site: liver; lesion: hepatocellular adenoma; dosed 35 weeks; study length 55 weeks
quantity-measured: TD50 (mg/kg/day)

compound: CC(=O)CNCC(O)C(O)N=O (stereo unspecified)
measurement-target: rodent lifetime carcinogenesis bioassay, tumor incidence TD50
quantity-measured: TD50
observed-measurement: 9.92

----------
# Tested on: rodent lifetime carcinogenesis bioassay, tumor incidence TD50
# assay-procedure: carcinogenic potency in animals, long-term in vivo studies, CPDB compilation (AID 1745844)
# measurement-setup: rat; strain F344/DuCrj; females; in feed; site: liver; lesion: hepatocellular carcinoma; dosed 52 weeks; study length 52 weeks

structure-notation: Cc1c(N)nc(C)c2c1[nH]c1ccccc12
measurement-target: rodent lifetime carcinogenesis bioassay, tumor incidence TD50
TD50: 0.577 mg/kg/day

----------
# Tested on: rodent lifetime carcinogenesis bioassay, tumor incidence TD50
# assay-procedure: carcinogenic potency in animals, long-term in vivo studies, CPDB compilation (AID 1745844)
# measurement-setup: rat; strain Sprague-Dawley; males; inhaled; site: liver; lesion: several types; types named in the paper; dosed 76 weeks; study length 103 weeks

structure-notation: C=CBr
TD50: 303 mg/kg/day

----------
# System: rodent lifetime carcinogenesis bioassay, tumor incidence TD50
# assay-procedure: carcinogenic potency in animals, long-term in vivo studies, CPDB compilation (AID 1745844)
# measurement-setup: rat; strain F344/DuCrj; females; in feed; site: small intestine; lesion: mucinous carcinoma; dosed 67 weeks; study length 67 weeks

structure-notation: Cc1cccn2c1nc1ccc(N)nc12
TD50: 71 mg/kg/day

----------
# Test system: rodent lifetime carcinogenesis bioassay, tumor incidence TD50
# assay-procedure: carcinogenic potency in animals, long-term in vivo studies, CPDB compilation (AID 1745844)
# measurement-setup: mouse; strain B6C3F1; males; in feed; site: liver; lesion: hepatocellular carcinoma; dosed 60 weeks; study length 61 weeks

molecule: ClC1=C(Cl)C2(Cl)C3C(Cl)C(Cl)CC3C1(Cl)C2(Cl)Cl (stereo unspecified)
measurement-target: rodent lifetime carcinogenesis bioassay, tumor incidence TD50
TD50: 1.91 mg/kg/day

----------
# System: rodent lifetime carcinogenesis bioassay, tumor incidence TD50
# assay-procedure: carcinogenic potency in animals, long-term in vivo studies, CPDB compilation (AID 1745844)
# measurement-setup: mouse; strain Charles River CD1; males; inhaled; site: lung; lesion: alveolar/bronchiolar tumor; dosed 26 weeks; study length 78 weeks
quantity-measured: TD50 (mg/kg/day)

structure-notation: C=CCl
quantity-measured: TD50
observed-measurement: 88.7

----------
# Test system: rodent lifetime carcinogenesis bioassay, tumor incidence TD50
# assay-procedure: carcinogenic potency in animals, long-term in vivo studies, CPDB compilation (AID 1745844)
# measurement-setup: mouse; strain AP Alderly Park; males; in feed; site: liver; lesion: several types; types named in the paper; dosed 26 weeks; study length 78 weeks

structure-notation: COC(=O)C(C)(C)Oc1ccc(-c2ccc(Cl)cc2)cc1
TD50: 2.08 mg/kg/day

----------
# System: rodent lifetime carcinogenesis bioassay, tumor incidence TD50
# assay-procedure: carcinogenic potency in animals, long-term in vivo studies, CPDB compilation (AID 1745844)
# measurement-setup: rat; strain Charles River CD (Sprague-Dawley); females; inhaled; site: kidney; lesion: tubular-cell adenocarcinoma; dosed 104 weeks; study length 107 weeks

structure-notation: ClC=C(Cl)Cl
TD50 / mg/kg/day: 10700

----------
# Tested on: rodent lifetime carcinogenesis bioassay, tumor incidence TD50
# assay-procedure: carcinogenic potency in animals, long-term in vivo studies, CPDB compilation (AID 1745844)
# measurement-setup: mouse; strain Swiss; females; in feed; site: lung; lesion: alveolar-cell carcinoma; dosed 33 weeks; study length 52 weeks

structure-notation: O=CNNc1nc(-c2ccc([N+](=O)[O-])o2)cs1
TD50, mg/kg/day: 67.1

----------
TD50 listing for selected compounds.
# Test system: rodent lifetime carcinogenesis bioassay, tumor incidence TD50
# assay-procedure: carcinogenic potency in animals, long-term in vivo studies, CPDB compilation (AID 1745844)
# measurement-setup: rat; strain Fischer 344; males; in feed; site: peritoneal cavity; lesion: spindle-cell sarcoma; dosed 72 weeks; study length 93 weeks
quantity-measured: TD50 (mg/kg/day)

structure-notation: Cc1ccccc1N=O
measurement-target: rodent lifetime carcinogenesis bioassay, tumor incidence TD50
observed-measurement: 303

structure-notation: Cc1ccccc1N
measurement-target: rodent lifetime carcinogenesis bioassay, tumor incidence TD50
observed-measurement: 190

----------
# Test system: rodent lifetime carcinogenesis bioassay, tumor incidence TD50
# assay-procedure: carcinogenic potency in animals, long-term in vivo studies, CPDB compilation (AID 1745844)
# measurement-setup: mouse; strain B6C3F1; females; in feed; site: forestomach; lesion: papilloma; dosed 96 weeks; study length 104 weeks
quantity-measured: TD50

structure-notation: c1ccc2c(c1)[nH]c1ccccc12
measurement-target: rodent lifetime carcinogenesis bioassay, tumor incidence TD50
observed-measurement: 1290 mg/kg/day

----------
# Test system: rodent lifetime carcinogenesis bioassay, tumor incidence TD50
# assay-procedure: carcinogenic potency in animals, long-term in vivo studies, CPDB compilation (AID 1745844)
# measurement-setup: rat; strain Fischer 344; females; in drinking water; site: liver; lesion: neoplastic nodule; dosed 78 weeks; study length 104 weeks
Activity calls are given as the source filed them. The rule behind the calls is not given here.
quantity-measured: TD50

structure-notation: ClCCl
observed-measurement: 1540 mg/kg/day (inactive)

----------
TD50 listing for selected compounds.
# Tested on: rodent lifetime carcinogenesis bioassay, tumor incidence TD50
# assay-procedure: carcinogenic potency in animals, long-term in vivo studies, CPDB compilation (AID 1745844)
# measurement-setup: rat; strain Fischer 344; males; by gavage; site: any site (literature study); lesion: several types; types named in the paper; dosed 104 weeks; study length 104 weeks

structure-notation: C/C=C/C=C/C=O
TD50 / mg/kg/day: 107
//
structure-notation: CCCCCCCC(=O)OCC(COC(=O)CCCCCCC)OC(=O)CCCCCCC
TD50 / mg/kg/day: 69900
//
structure-notation: O=P(OCCCl)(OCCCl)OCCCl
TD50 / mg/kg/day: 56.8

----------
# Tested on: rodent lifetime carcinogenesis bioassay, tumor incidence TD50
# assay-procedure: carcinogenic potency in animals, long-term in vivo studies, CPDB compilation (AID 1745844)
# measurement-setup: rat; strain Fischer 344; females; by gavage; site: urinary bladder; lesion: transitional-cell papilloma; dosed 103 weeks; study length 104 weeks

structure-notation: c1ccoc1
TD50 / mg/kg/day: 50.7

----------
# System: rodent lifetime carcinogenesis bioassay, tumor incidence TD50
# assay-procedure: carcinogenic potency in animals, long-term in vivo studies, CPDB compilation (AID 1745844)
# measurement-setup: rat; strain Fischer 344; females; in feed; site: skin; lesion: squamous-cell papilloma; dosed 103 weeks; study length 104 weeks

structure-notation: Nc1c(Br)cc(Br)c2c1C(=O)c1ccccc1C2=O
output-unit: mg/kg/day
TD50: 2600

----------
# Tested on: rodent lifetime carcinogenesis bioassay, tumor incidence TD50
# assay-procedure: carcinogenic potency in animals, long-term in vivo studies, CPDB compilation (AID 1745844)
# measurement-setup: monkey; strain Rhesus [Macaca mulatta]; both sexes; several routes; site: all sites; lesion: acute nonlymphocytic leukemia; dosed 825 weeks; study length 1182 weeks
quantity-measured: TD50

structure-notation: CNNCc1ccc(C(=O)NC(C)C)cc1
quantity-measured: TD50
observed-measurement: 4.21 mg/kg/day

----------
# Test system: rodent lifetime carcinogenesis bioassay, tumor incidence TD50
# assay-procedure: carcinogenic potency in animals, long-term in vivo studies, CPDB compilation (AID 1745844)
# measurement-setup: mouse; strain C3H/HeN-MTV-/Nctr (MTV-); females; in feed; site: uterus; lesion: endometrial adenocarcinoma; dosed 123 weeks; study length 123 weeks
quantity-measured: TD50

structure-notation: CC/C(=C(/CC)c1ccc(O)cc1)c1ccc(O)cc1
measurement-target: rodent lifetime carcinogenesis bioassay, tumor incidence TD50
observed-measurement: 1.87 mg/kg/day

----------
# System: rodent lifetime carcinogenesis bioassay, tumor incidence TD50
# assay-procedure: carcinogenic potency in animals, long-term in vivo studies, CPDB compilation (AID 1745844)
# measurement-setup: mouse; strain Charles River CD1; females; by gavage; site: lung; lesion: adenoma; dosed 80 weeks; study length 80 weeks
Active and inactive are the calls of the source. No rule for the calls is given here.

molecule: Cn1cc(OCC(O)CNC(C)(C)C)c2ccccc2c1=O (stereo unspecified)
TD50: 843 mg/kg/day (inactive)
